- experimentalDetails: Antianaphylactic activity in rat mast cells assessed as inhibition of DNP-ovalbumin-induced histamine release after 15 mins by superfusion assay relative to 4-oxo-N-(5-tetrazolyl)-4H-l-benzopyran-2-carboxamide
- Type: functional, Mast cell
endpoint: fold change (potency relative to reference compound)
One number for each entry.

# annotated cases, reported fold change (potency relative to reference compound) shown
                     smilesrepresentation  recordedvalue
0     Cc1c(C(=O)Nc2nnn[nH]2)oc2ccccc2c1=O              1
1  COc1ccc2c(=O)cc(C(=O)Nc3nnn[nH]3)oc2c1            1.8
2      O=C(Nc1nnn[nH]1)c1cc(=O)c2ccccc2o1              1
3      O=C(Nc1nnn[nH]1)c1ccc2occc(=O)c2c1           0.08
4  O=C(Nc1nnn[nH]1)c1cc(=O)c2cc(Cl)ccc2o1           0.12

Could I get fold change (potency relative to reference compound) for every one of these entries?
1. Cc1ccc2c(=O)cc(C(=O)Nc3nnn[nH]3)oc2c1
2. O=C(Nc1nnn[nH]1)c1ccc2oc(C(=O)Nc3nnn[nH]3)cc(=O)c2c1
3. O=C(Nc1nnn[nH]1)c1ccc2oc(-c3nnn[nH]3)cc(=O)c2c1

Response line:
0.19
0.1
1

====

- experimentalDetails: Antianaphylactic activity in rat mast cells assessed as inhibition of DNP-ovalbumin-induced histamine release after 15 mins by superfusion assay relative to 4-oxo-N-(5-tetrazolyl)-4H-l-benzopyran-2-carboxamide
- Format: functional, Mast cell
For each entry below, report its fold change (potency relative to reference compound) value.

# annotated cases, reported fold change (potency relative to reference compound) shown
In [3]: df
Out[3]:
                       smilesrepresentation  recordedvalue
0  Cc1oc2ccc(S(=O)(=O)Nc3nnn[nH]3)cc2c(=O)c1C         <0.005
1     CN1CCN(C(=O)/C=C/c2coc3ccccc3c2=O)CC1         <0.005
2           O=c1c(-n2nn[nH]c2=O)coc2ccccc12           0.01
3          O=C(Nc1nnn[nH]1)c1coc2ccccc2c1=O           0.48

Could I get fold change (potency relative to reference compound) for every one of these entries?
1. Cn1nnnc1NC(=O)c1cc(=O)c2ccccc2o1
2. Cc1ccc2c(=O)cc(C(=O)Nc3nnn[nH]3)oc2c1.NCCO

Response line:
1. <0.005
2. 0.75

====

- experimentalDetails: Antianaphylactic activity in rat mast cells assessed as inhibition of DNP-ovalbumin-induced histamine release after 15 mins by superfusion assay relative to 4-oxo-N-(5-tetrazolyl)-4H-l-benzopyran-2-carboxamide
- Type: functional, Mast cell
Lab note: anything with fold change (potency relative to reference compound) below 0.01 is marked yes (1); values at 0.01 or higher are marked no (0).

                  smilesrepresentation  labelvalue
0  CN1CCN(C(=O)c2coc3ccccc3c2=O)CC1.Cl     yes (1)

Prompt line: For O=C(O)c1coc2ccccc2c1=O , is the recorded fold change (potency relative to reference compound) below the cut-off of 0.01?
Response line: yes (1)

Prompt line: For O=C(O)CNC(=O)c1ccc2oc(C(=O)NCC(=O)O)cc(=O)c2c1 , is the recorded fold change (potency relative to reference compound) below the cut-off of 0.01?
Response line: yes (1)

Prompt line: For N#Cc1ccc2oc(C(=O)Nc3nnn[nH]3)cc(=O)c2c1 , is the recorded fold change (potency relative to reference compound) below the cut-off of 0.01?
Response line: no (0)

Prompt line: For O=C(Cc1nnn[nH]1)Nc1coc2ccccc2c1=O , is the recorded fold change (potency relative to reference compound) below the cut-off of 0.01?
Response line: yes (1)

Prompt line: For CN1CCN(C(=O)c2cc(=O)c3ccccc3o2)CC1.Cl , is the recorded fold change (potency relative to reference compound) below the cut-off of 0.01?
Response line: yes (1)

Prompt line: For Cc1ccc2oc(C(=O)O)c(-c3ccccc3)c(=O)c2c1 , is the recorded fold change (potency relative to reference compound) below the cut-off of 0.01?
Response line: yes (1)

Prompt line: For Cc1ccc2oc(C(=O)Nc3nnn[nH]3)c(-c3ccccc3)c(=O)c2c1 , is the recorded fold change (potency relative to reference compound) below the cut-off of 0.01?
Response line: yes (1)

Prompt line: For O=C(Nc1nnn[nH]1)c1oc2ccccc2c(=O)c1Cl , is the recorded fold change (potency relative to reference compound) below the cut-off of 0.01?
Response line: no (0)

Prompt line: For NCCCO.O=C(Nc1nnn[nH]1)c1oc2ccccc2c(=O)c1NCCCO , is the recorded fold change (potency relative to reference compound) below the cut-off of 0.01?
Response line: no (0)
